Reported IC50 values for a set of compounds
Tested on: HeLa: human epitheloid cervix carcinoma
Assay: In vitro cytotoxicity / antiproliferation, HeLa
Type: cell-based
Protocol: The in vitro cytotoxicity of boronic derivatives of hydroxamates was tested against various cancer cell lines; the results are provided in Table 1.
# unit: µM | format: bare number

Examples with answers:
# IC50 of CC1=C(CC(=O)NOCc2ccc(B3OC(C)(C)C(C)(C)O3)cc2)c2cc(F)ccc2/C1=C/c1ccc([S+](C)[O-])cc1 (stereo not shown) [Compound 11] = 277

# IC50 of O=C(/C=C/c1cccc(S(=O)(=O)Nc2ccccc2)c1)NO [Belinostat, reference compound] = 0.0865

# IC50 of CC1(C)OB(c2ccc(CONC(=O)/C=C/c3cccc(S(=O)(=O)Nc4ccccc4)c3)cc2)OC1(C)C [Compound 3] = 0.273

Now look at this one.
# IC50 of CC1=C(CC(=O)O)c2cc(F)ccc2/C1=C\c1ccc([S+](C)[O-])cc1 (stereo not shown) [Sulindac, reference compound] = 458

###

Reported pIC50 values for a set of molecules
test system: A549: human non-small-cell lung carcinoma; test: In vitro cytotoxicity / antiproliferation, A549; type: cell-based
pIC50: −log10 of the molar value.

# pIC50 of COc1ccc(C(=O)NOCc2ccc(B3OC(C)(C)C(C)(C)O3)cc2)cc1OC [Compound 16] = < 5.00

# pIC50 of CN(C)Cc1ccc(S(=O)(=O)n2ccc(/C=C/C(=O)NOCc3ccc(B4OC(C)(C)C(C)(C)O4)cc3)c2)cc1 [Compound 5] = < 5.00

# pIC50 of CC(C)Cc1ccc(C(C)C(=O)NOCc2ccc(B3OC(C)(C)C(C)(C)O3)cc2)cc1 (stereo not shown) [Compound 14] = < 5.00

# pIC50 of CC1=C(CC(=O)O)c2cc(F)ccc2/C1=C\c1ccc([S+](C)[O-])cc1 (stereo not shown) [Sulindac, reference compound] = 1.69

###

tested on: A549: human non-small-cell lung carcinoma; test: In vitro cytotoxicity / antiproliferation, A549; type: cell-based
quantity: pIC50
Please keep in mind that pIC50 is minus log10 of the molar concentration; only the number is needed.

# pIC50 of CC1=C(CC(=O)NOCc2ccc(B3OC(C)(C)C(C)(C)O3)cc2)c2cc(F)ccc2/C1=C/c1ccc([S+](C)[O-])cc1 (stereo not drawn) = 3.16

# pIC50 of O=C(/C=C/c1cccc(S(=O)(=O)Nc2ccccc2)c1)NO [Belinostat, reference compound] = 7.12

New cases:
# pIC50 of `CC1(C)OB(c2ccc(CONC(=O)/C=C/c3cccc(S(=O)(=O)Nc4ccccc4)c3)cc2)OC1(C)C` = 6.34

###

test system: MDA-MB-231: human breast adenocarcinoma; assay: In vitro cytotoxicity / antiproliferation, MDA-MB-231; format: cell-based; conditions: MDA-MB-231, read-out: Antiproliferation activity (IC50)
Reported IC50 values for a set of compounds
# unit: µM | format: bare number

Examples with answers:
# IC50 of CC1=C(CC(=O)NOCc2ccc(B3OC(C)(C)C(C)(C)O3)cc2)c2cc(F)ccc2/C1=C/c1ccc([S+](C)[O-])cc1 (stereo not shown) = 20.1

# IC50 of CC1=C(CC(=O)O)c2cc(F)ccc2/C1=C\c1ccc([S+](C)[O-])cc1 (stereo not shown) [Sulindac, reference compound] = 1400

# IC50 of Cn1c(CCCC(=O)O)nc2cc(N(CCCl)CCCl)ccc21 [Bendamustine, reference compound] = 37.5

Now look at this one.
# IC50 of `CC1(C)OB(c2ccc(CONC(=O)/C=C/c3cccc(S(=O)(=O)Nc4ccccc4)c3)cc2)OC1(C)C` = 0.303

Origin of values: patent US11046715B2
